Recorded measurements of CD50, one per entry
# Test system: MRC-5 cells
# settings: Example 2; cells exposed 6 or more days
Kindly answer with a numeric value in µg/mL, unit omitted.

Cc1cc(O)c2c(c1)C(C1c3cc(C)cc(O)c3C(=O)c3c(O)cc(O)cc31)c1cc(O)cc(O)c1C2=O (stereo not drawn) [Emodin Bianthrone (meso), emodin bianthrone]    1.8

GET /values?readout=CD50&item= Cc1cc(O)c2c(c1)C(C1c3cc(C)cc(O)c3C(=O)c3c(O)cc(O)cc31)c1cc(O)cc(O)c1C2=O (centres unmarked) [Emodin Bianthrone (mixed), emodin bianthrone]
1.1

Tell me the measured CD50 of Cc1cc(O)c2c(c1)C(C1c3cc(C)cc(O)c3C(=O)c3c(O)cc(O)cc31)c1cc(O)cc(O)c1C2=O (centres unmarked) [Emodin Bianthrone (d,1), emodin bianthrone] , please.
1.2
